# measurement_description: Antiproliferative activity against apoptosis resistant human OE21 cells after 72 hrs by MTT assay
# Format: functional, cell-based
# test_parameters: OE21, 72 h
pIC50: −log10 of the molar value.
metric: pIC50

O=C1Nc2ccc(Br)cc2/C1=C1/Nc2ccccc2C1=O | 5.42
O=C1NC(=S)N/C1=C1\C(=O)Nc2ccccc21 | 4.41
O=C1Nc2c(Br)cccc2/C1=C1/Nc2ccccc2C1=O | 5.06
O=C1Nc2ccc(Br)cc2/C1=C1/Cc2ccccc2C1=O | 4.25
O=C1Nc2ccccc2/C1=C1/Oc2ccccc2C1=O | 4.59
O=C1Nc2c(Cl)cccc2/C1=C1/Nc2ccccc2C1=O | 4.45
